ASSAY_REMARKS: Peptide stability in simulated intestinal fluid (SIF)
Type: in vitro ADME
EXPERIMENTAL_PARAMETERS: pig, simulated intestinal fluid (SIF) with porcine pancreatin, Table 3-2, porcine pancreatin, pH 6.8, 37° C., 10 μM, 4 h, read-out: SIF (% remaining 4 h)
*1 amine or outer side, *2 acyl side, *3 side chain or, on linkers, in order; H or OH if unused. Where a SMILES comes first, the peptide text is derived from it. Bridges are numbered along the chain shown (N, C = ends). [ ]: non-standard residue; d: D form. αMeAla(3-pyridyl) = C[C@](N)(Cc1cccnc1)C(=O)O; Trp(1-Me) = Cn1cc(C[C@H](N)C(=O)O)c2ccccc21; Phe(3,4-Me2) = Cc1ccc(C[C@H](N)C(=O)O)cc1C; 2Nal = N[C@@H](Cc1ccc2ccccc2c1)C(=O)O; AEF = NCCOc1ccc(C[C@H](N)C(=O)O)cc1; X1 = O=C(Cc1ccc(CN[*:1])cc1)[*:2]; αMeL = CC(C)C[C@](C)(N)C(=O)O; CH2COCH2 = O=C(C[*:1])C[*:2]; Phg = N[C@H](C(=O)O)c1ccccc1; αMeV = CC(C)[C@](C)(N)C(=O)O; 3Amb = NCc1cccc(C(=O)O)c1; Dab = NCC[C@H](N)C(=O)O
QUANTITY_NAME: remaining at 4 h, 10 μM (%)
Entry rule: numbers only, all in %.

Worked set:
CC(=O)N[C@H]1CCCCNC(=O)CC[C@@H](C(=O)N[C@@H](CCCNC(=N)N)C(N)=O)NC(=O)[C@H](CC(C)C)NC(=O)[C@H](Cc2ccc3ccccc3c2)NC(=O)[C@H](Cc2c[nH]c3ccccc23)NC(=O)[C@@H]2CSCC(=O)CSC[C@H](NC(=O)[C@H](CO)NC1=O)C(=O)N[C@@H](Cc1cn(C)c3ccccc13)C(=O)N[C@@H](CCC(N)=O)C(=O)N2 [Compound 27] (Ac-KSC[Trp(1-Me)]QCW[2Nal]LER-NH2; lactam 1-10; linker 3-6 via CH2COCH2)
0
CC(C)C[C@@H]1NC(=O)[C@H](Cc2ccc3ccccc3c2)NC(=O)[C@H](Cc2ccc(OCCN)cc2)NC(=O)[C@@H]2CSCC(=O)CSC[C@H](NC(=O)[C@H](CO)NC(=O)c3cccc(c3)CNC(=O)CC[C@@H](C(=O)N[C@@H](CCCNC(=N)N)C(N)=O)NC1=O)C(=O)N[C@@H](Cc1c[nH]c3ccccc13)C(=O)N[C@@H](CCC(N)=O)C(=O)N2 [Compound 39] ([3Amb]SCWQC[AEF][2Nal]LER-NH2; linker 3-6 via CH2COCH2; lactam N-10)
0
CC(=O)N[C@H]1CCCCNC(=O)CC[C@@H](C(=O)N[C@H](CCCNC(=N)N)C(N)=O)NC(=O)[C@](C)(CC(C)C)NC(=O)[C@H](Cc2ccc3ccccc3c2)NC(=O)[C@H](Cc2ccc(OCCN)cc2)NC(=O)[C@@H]2CSCC(=O)CSC[C@H](NC(=O)[C@H]([C@@H](C)O)NC1=O)C(=O)N[C@@H](Cc1c[nH]c3ccccc13)C(=O)N[C@@H](CCC(N)=O)C(=O)N2 [Compound 85] (Ac-KTCWQC[AEF][2Nal][αMeL]E[dR]-NH2; lactam 1-10; linker 3-6 via CH2COCH2)
74
CC[C@H](C)[C@@H]1NC(=O)Cc2ccc(cc2)CNC(=O)CC[C@@H](C(=O)N[C@@H](CCN)C(=O)N[C@@](C)(Cc2cccnc2)C(N)=O)NC(=O)[C@](C)(C(C)C)NC(=O)[C@H](Cc2ccc(C)c(C)c2)NC(=O)[C@H](c2ccccc2)NC(=O)[C@@H]2CCNC(=O)CC[C@H](NC1=O)C(=O)N[C@@H](Cc1c[nH]c3ccccc13)C(=O)N[C@@H](CCC(N)=O)C(=O)N2 [Compound 174] ([X1]IEWQ[Dab][Phg][Phe(3,4-Me2)][αMeV]E[Dab][αMeAla(3-pyridyl)]-NH2; lactam 3-6, N-10)
86

### Prompt # query: remaining at 4 h, 10 μM of entry CC[C@H](C)[C@@H]1NC(=O)Cc2ccc(cc2)CNC(=O)CC[C@@H](C(=O)N[C@@H](CCN)C(=O)N[C@@](C)(Cc2cccnc2)C(N)=O)NC(=O)[C@](C)(C(C)C)NC(=O)[C@H](Cc2ccc(C)c(C)c2)NC(=O)[C@H](Cc2ccc(OC)cc2)NC(=O)[C@@H]2CCNC(=O)CC[C@H](NC1=O)C(=O)N[C@@H](Cc1c[nH]c3ccccc13)C(=O)N[C@@H](CCC(N)=O)C(=O)N2 [Compound 166] ([X1]IEWQ[Dab]Y(Me)[Phe(3,4-Me2)][αMeV]E[Dab][αMeAla(3-pyridyl)]-NH2; lactam 3-6, N-10)
### Response 86
